protocolSummary: antimalarial activity against Dd2 strain (AID 2302);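 also: 0% = DMSO untreated growth and 100% = chloroquine plus artemisinin killed control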
testSettings: P. falciparum Dd2 in RBCs, LDH growth readout, 72 h; at 2 µM; stronger effect = higher value
reportedEndpoint: growth inhibition (%)
Numeric only. Scale: %

{"columns": ["compound", "reportedEndpoint", "unitsLabel", "measured"],
 "data": [
  ["Cc1cccc(C)c1OC(=O)CSc1nnc(-c2ccccc2O)o1", "growth inhibition", "%", -2]
]}

I am curious: what growth inhibition value has been reported for COc1cc(CCOc2c(C)nc(N)nc2N)cc(OC)c1OC ?
-3

====

protocolSummary: HepG2 cytotoxicity, primary screen, cytotoxicity control for P. falciparum antimalarial project, cell-based, ATP luminescence (AID 2303);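 also: 0% = DMSO wells and 100% = digitonin-killed cells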
testSettings: HepG2 viability, 24-48 h, at 10 µM
The source made the active and inactive calls.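 How the source made its calls: active means inhibition above 50%; inactive means the rest.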
Hi! Could you answer with just one of these? YES = active, NO = inactive

Look over these answered cases.
{"columns": ["compound", "groupLabel"],
 "data": [
  ["COc1cc2c(cc1OC)CC(NCc1ccc(-c3ccc4nc[nH]c4c3)cc1)C2", "NO"],
  ["Cc1noc(C)c1-c1ccc2c(Nc3ccccc3C(C)(C)C)c(C(=O)NCc3ccc4c(c3)OCO4)cnc2c1", "NO"]
]}

Can you look up the reported call for Cc1[nH]c(C)c(-c2ccc(-c3cccc(Cl)c3)nc2)c(=O)c1Cl for me?
NO

Can you look up the reported call for COc1cccc(CNC(=O)c2cccc(-c3cccc(CN4CCC(N5CCCC5)CC4)c3)n2)c1 for me?
NO

Can you look up the reported call for CN1CCN(CCc2ccc(N=Cc3c(=O)[nH]c4ccc5[nH]cccc5c34)cc2)CC1 for me?
YES

Can you look up the reported call for CSc1cccc(Nc2nc3ccc(S(=O)(=O)NC(C)C(C)C)cc3n2[C@H](C)C(C)(C)C)c1 (stereo partly specified) for me?
NO

Can you look up the reported call for CC1(C)CCC(C)(C)c2c1ccc(C1CCN(CCCCNC(=O)c3ccc(-c4ccc(C#N)cc4)cc3)CC1)c2O for me?
YES
